tested on: Plasmodium berghei; assay: Luciferase/luciferin-expressing antifolate-resistant parasites were used to infect a culture of HepG2 cells that were pre-incubated with compounds. Infected hepatocytes emit light due to the luciferase reaction. Assay results are presented as the percent inhibition of light emission compared to control. […]; format: functional; conditions: sporozoite, FFLUC_HILL_SLOPE 12.7, FFLUC_R_SQUARED 0.0456, HEPG2TOX_HILL_SLOPE 0.0305, HEPG2TOX_R_SQUARED 0.0383, read-out: LUCIFERASE INFECTION ASSAY - IC50
pIC50: −log10 of the molar value.
Readout Label: pIC50

I'd like to know its pIC50. The compound in question is CCCn1nc(C(=O)Nc2ccccc2Cc2ccccc2)c2ccccc2c1=O < 5.00

====

tested on: Plasmodium berghei; experiment: Luciferase/luciferin-expressing antifolate-resistant parasites were used to infect a culture of HepG2 cells that were pre-incubated with compounds. Infected hepatocytes emit light due to the luciferase reaction. Assay results are presented as the percent inhibition of light emission compared to control. […]; format: functional; details: sporozoite, PBLUC_HILL_SLOPE 1.71, PBLUC_R_SQUARED 0.0423, read-out: LUCIFERASE INFECTION ASSAY - IC50
Readout Label: pIC50
Bear in mind: pIC50 is minus log10 of a mol/L concentration; give just that figure.

I'd like to know its pIC50. The molecule in question is COc1ccccc1/C=C(\C#N)c1ccc(C)cc1 4.97

====

test system: Plasmodium berghei; experiment: Luciferase/luciferin-expressing antifolate-resistant parasites were used to infect a culture of HepG2 cells that were pre-incubated with compounds. Infected hepatocytes emit light due to the luciferase reaction. Assay results are presented as the percent inhibition of light emission compared to control. […]; type: functional; settings: sporozoite, read-out: LUCIFERASE INFECTION ASSAY - IC90
Readout Label: IC90 (µM)
Value expressed in µM; do not type the unit.

# Query Smiles, IC90, µM
data = [
    ("CCOc1ccc(C(=O)CN(C#N)C(=O)c2ccccc2)cc1", 0.758),
    ("CCCN(CCC)S(=O)(=O)c1ccc(-n2ncc(Cl)c(Cl)c2=O)cc1", 2.67),
    ("Cc1cccc(OCCN(C)Cc2cc(=O)n3c([nH]c4ccccc43)c2C#N)c1", 7.03),
]

With those in mind, consider the next molecule.
I'd like to know its IC90. The molecule in question is CC(=O)Nc1ccc(OC(=O)c2cc(C(C)(C)C)nn2Cc2c(C)cc(C)cc2C)cc1 3.69

====

tested on: Plasmodium berghei; assay: Luciferase/luciferin-expressing antifolate-resistant parasites were used to infect a culture of HepG2 cells that were pre-incubated with compounds. Infected hepatocytes emit light due to the luciferase reaction. Assay results are presented as the percent inhibition of light emission compared to control. […]; type: functional; settings: sporozoite, HEPG2TOX_HILL_SLOPE 6.57, HEPG2TOX_R_SQUARED 0.439, PBLUC_HILL_SLOPE 2.9, PBLUC_R_SQUARED 0.288, read-out: LUCIFERASE INFECTION ASSAY - IC50
pIC50: −log10 of the molar value.
Readout Label: pIC50

I'd like to know its pIC50. The compound in question is Oc1ccccc1/C=N/Nc1cccc(C(F)(F)F)c1 < 4.93

====

tested on: Plasmodium berghei; assay: Luciferase/luciferin-expressing antifolate-resistant parasites were used to infect a culture of HepG2 cells that were pre-incubated with compounds. Infected hepatocytes emit light due to the luciferase reaction. Assay results are presented as the percent inhibition of light emission compared to control. […]; assay type: functional; conditions: sporozoite, PBLUC_HILL_SLOPE 2.17, PBLUC_R_SQUARED 0.608, read-out: LUCIFERASE INFECTION ASSAY - IC50
Readout Label: pIC50
Bear in mind: pIC50 is minus log10 of a mol/L concentration; give just that figure.

I'd like to know its pIC50. The compound in question is O=C(/C=C/c1cn(Cc2ccccc2)nc1-c1ccccc1)N1CCN(c2ccncc2)CC1 5.65
